- STUDY_SYSTEM: T1, human OX40 protein (Sino Biological, Cat. 10481-H08H) (human, UniProt P43489 29-216)
- T1 construct: Bought recombinant protein; also called CD134; TNFRSF4
- T1 sequence (looked up): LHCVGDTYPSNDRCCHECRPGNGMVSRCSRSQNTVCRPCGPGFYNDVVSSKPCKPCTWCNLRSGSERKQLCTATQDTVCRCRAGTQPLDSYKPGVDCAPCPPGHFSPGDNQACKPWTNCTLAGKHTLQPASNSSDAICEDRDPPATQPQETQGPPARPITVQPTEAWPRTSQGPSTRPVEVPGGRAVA
- EXPERIMENT_NOTES: SPR (BIACORE T200), antibody captured on protein A chip, human OX40 as analyte, 1:1 model
RESULT_TYPE: koff (s⁻¹)
Give just the number in s⁻¹; leave the unit off.

Look up koff for this binder: O34 (antibody, V domains shown) VH: EVQLLESGGGLVQPGGSLRLSCAASGFTFSDYYMSWVRQAPGKGLEWVSGISSSGGNKYYADSVKGRFTISRDNSKNTLYLQMNSLRAEDTAVYYCARHWKRFDYWGQGTLVTVSS VL: QSVLTQPPSASGTPGQRVTISCTGPSSNIGNNDVSWYQQLPGTAPKLLIYANSNRPSGVSDRFSGSKSGTSASLAISGLRSEDEADYYCGTWDYSLSGYVLGGGTKLTVLG
5.63e-05

Quick one: koff for O31C (antibody, human IgG1, lambda, V domains shown) VH: EVQLLESGGGLVQPGGSLRLSCAASGFTFSDYDMSWVRQAPGKGLEWVSSISPSSGSIYYADSVKGRFTISRDNSKNTLYLQMNSLRAEDTAVYYCAKDSIWCTNSRCYYDNAMDVWGQGTLVTVSS VL: QSVLTQPPSASGTPGQRVTISCSGSSSNIGNNAVSWYQQLPGTAPKLLIYSDSNRPSGVPDRFSGSKSGTSASLAISGLRSEDEADYYCGSWDYSLSAYVFGGGTKLTVLG ?
0.00238

Recorded koff of O410 (antibody, human IgG1, lambda, V domains shown) VH: EVQLLESGGGLVQPGGSLRLSCAASGFTFSDYYMSWVRQAPGKGLEWVSGIYSDGSRKYYADSVKGRFTISRDNSKNTLYLQMNSLRAEDTAVYYCARHWSRFDYWGQGTLVTVSS VL: QSVLTQPPSASGTPGQRVTISCSGSSSNIGSNYVTWYQQLPRTAPKLLIYYDSNRPSGVPDRFSGSKSGTSASLAISGLRSEDEADYYCGAWDDSLSGYVFGGGTKLTVLG , please.
4.17e-05

Quick one: koff of O212 (antibody, V domains shown, also called O212 antibody) VH: EVQLLESGGGLVQPGGSLRLSCAASGFTFSDYAMSWVRQAPGKGLEWVSWIYYDSGSKYYADSVKGRFTISRDNSKNTLYLQMNSLRAEDTAVYYCAKGPGPNGQLAFDYWGQGTLVTVSS VL: QSVLTQPPSASGTPGQRVTISCTGSSSNIGSNSVSWYQQLPGTAPKLLIYANSHRPSGVPDRFSGSKSGTSASLAISGLRSEDEADYYCGAWDYSLSGYVFGGGTKLTVLG ?
0.00167
